System: ornithine decarboxylase (ODC)
Assay: ODC assay: inhibition of TPA induction of ornithine decarboxylase (retinoid-like activity)
Assay type: biochemical
Conditions: concentration of the test compound which causes 80% inhibition in the ODC assay (TPA-induced ODC)
Source text: The retinoic acid-like activity of these compounds is confirmed through the classic measure of retinoic acid activity involving the effects of retinoic acid on ornithine decarboxylase. The original work on the correlation between retinoic acid and decrease in cell proliferation was done by Verma & Boutwell, Cancer Research, 1977, 37,2196-2201. That reference discloses that ornithine decarboxylase (ODC) activity increased precedent to polyamine biosynthesis. […]
IC80 conc: recorded values
// units = nmols; emit number, no label

// solved cases for IC80 conc follow
In [3]: df
Out[3]:
                                   compound  output_unit  numeric_result
0  COCOC1CCC(C)(C)c2ccc(C#Cc3ccc(C(=O)O)cc3)cc21 (centres unmarked)        nmols            0.81
1  CCOC(=O)c1ccc(C#Cc2ccc3c(c2)[C@H](O[C@H]2CCCCO2)CCC3(C)C)nc1 (relative stereo)        nmols            2.20
2  CCOC(=O)c1ccc(C#Cc2ccc3c(c2)C(OCOC)CCC3(C)C)cc1 (centres unmarked)        nmols            0.40

Kindly consider the entry below.
Ask: Return reported IC80 conc; argument: CC1(C)CCC(O)c2ccc(C#Cc3ccc(C(=O)O)cc3)cc21 (centres unmarked)
Reply: 0.66

Where do the numbers come from? From patent US5654469A.
